Study Target: UniProt:P41587
Sequence (P41587 24-438): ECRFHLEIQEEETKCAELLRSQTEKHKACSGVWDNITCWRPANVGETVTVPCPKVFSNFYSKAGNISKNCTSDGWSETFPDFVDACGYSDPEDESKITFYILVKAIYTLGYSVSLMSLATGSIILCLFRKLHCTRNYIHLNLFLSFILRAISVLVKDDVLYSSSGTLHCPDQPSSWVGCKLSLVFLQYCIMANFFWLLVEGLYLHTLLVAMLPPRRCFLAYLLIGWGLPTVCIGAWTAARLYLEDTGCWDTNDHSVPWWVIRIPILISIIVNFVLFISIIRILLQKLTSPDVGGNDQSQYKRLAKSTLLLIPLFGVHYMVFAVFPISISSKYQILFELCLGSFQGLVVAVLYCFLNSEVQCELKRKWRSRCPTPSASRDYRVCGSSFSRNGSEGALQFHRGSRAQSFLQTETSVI
Assay Explanation: Inhibition of VIP-induced β-arrestin recruitment (% Activity Arrestin)
Assay type: cell-based
Set-up: expressed in transfected cells; host or cells: HEK293 cells transfected with VIPR2 in pCDNA3.1 (as described)
Details: 1 μM, Batch 3
Quantity: inhibition at 1 µM (%)
Write the number in % without appending the unit.

# annotated cases, reported inhibition at 1 µM shown
Give its inhibition at 1 µM value. Item: CC(=O)Nc1ccc(S(=O)(=O)NC[C@@H](O)C[C@@H](Cc2ccccc2)C(=O)N[C@H]2c3ccccc3C[C@H]2O)cc1
4.9

Give its inhibition at 1 µM value. Item: O=C(Nc1ccc(S(=O)(=O)NC[C@@H](O)C[C@@H](Cc2ccccc2)C(=O)N[C@H]2c3ccccc3C[C@H]2O)cc1)C1CC1
-0.3

Give its inhibition at 1 µM value. Item: CCCNc1ccc(S(=O)(=O)NC[C@@H](O)C[C@@H](Cc2ccccc2)C(=O)N[C@H]2c3ccccc3C[C@H]2O)cc1
2.6

Further cases:
Give its inhibition at 1 µM value. Item: O=C(NC1CCCC1)c1ccc(S(=O)(=O)NC[C@@H](O)C[C@@H](Cc2ccccc2)C(=O)N[C@H]2c3ccccc3C[C@H]2O)cc1
0.5

Give its inhibition at 1 µM value. Item: CCCCCNc1ccc(S(=O)(=O)NC[C@@H](O)C[C@@H](Cc2ccccc2)C(=O)N[C@H]2c3ccccc3C[C@H]2O)cc1
2.3

Give its inhibition at 1 µM value. Item: O=C(N[C@H]1c2ccccc2C[C@H]1O)[C@H](Cc1ccccc1)C[C@H](O)CNS(=O)(=O)c1ccc(C(=O)N2CCOCC2)cc1
1.8

This collection of values is drawn from patent US20150239831A1.
